The measured values listed here are drawn from the NIST ThermoML archive (doi:10.1016/j.fluid.2018.11.011).

Test method notes: activity coefficient (dimensionless); of the first substance listed, at infinite dilution; xn = mol fraction of the nth substance listed
Test parameters: 353 K; 101.33 kPa; Liquid; Chromatography; x1 = 0
Field: activity coefficient. Provide a value for each of the molecules that follow.
Numbers only.

Example molecules with recorded activity coefficient:
- Molecule: "C/C=C/C(C)C [(E)-4-methyl-2-pentene] + CCCCCCCCCC[N+](C)(C)CCCCCCCCCC.F[B-](F)(F)F"
  activity coefficient: 1.57
- Molecule: "CCCCCCC [heptane] + CCCCCCCCCC[N+](C)(C)CCCCCCCCCC.F[B-](F)(F)F"
  activity coefficient: 2.48
- Molecule: "ClCCCl [1,2-dichloroethane] + CCCCCCCCCC[N+](C)(C)CCCCCCCCCC.F[B-](F)(F)F"
  activity coefficient: 0.682
- Molecule: "C#CCCCCC [1-heptyne] + CCCCCCCCCC[N+](C)(C)CCCCCCCCCC.[O-][Cl+3]([O-])([O-])[O-]"
  activity coefficient: 1.18
- Molecule: "C/C=C(\\C)CC [(E)-3-methyl-2-pentene] + CCCCCCCCCC[N+](C)(C)CCCCCCCCCC.F[B-](F)(F)F"
  activity coefficient: 1.43

// each listed molecule needs a value for activity coefficient
1. CCOCC [diethyl ether] + CCCCCCCCCC[N+](C)(C)CCCCCCCCCC.[O-][Cl+3]([O-])([O-])[O-]
2. CCCCCC [hexane] + CCCCCCCCCC[N+](C)(C)CCCCCCCCCC.[O-][Cl+3]([O-])([O-])[O-]
3. C#CCCCC [1-hexyne] + CCCCCCCCCC[N+](C)(C)CCCCCCCCCC.F[B-](F)(F)F
4. CC(C)O [propan-2-ol] + CCCCCCCCCC[N+](C)(C)CCCCCCCCCC.F[B-](F)(F)F
5. CCCCCCCC [octane] + CCCCCCCCCC[N+](C)(C)CCCCCCCCCC.[O-][Cl+3]([O-])([O-])[O-]
6. CCCCCC [hexane] + CCCCCCCCCC[N+](C)(C)CCCCCCCCCC.F[B-](F)(F)F
7. C=CCCCC [hex-1-ene] + CCCCCCCCCC[N+](C)(C)CCCCCCCCCC.[O-][Cl+3]([O-])([O-])[O-]
8. ClC(Cl)Cl [trichloromethane] + CCCCCCCCCC[N+](C)(C)CCCCCCCCCC.[O-][Cl+3]([O-])([O-])[O-]

1: 0.74; 2: 2.45; 3: 0.937; 4: 1.9; 5: 3.16; 6: 2.2; 7: 1.73; 8: 0.302

// each listed molecule needs a value for activity coefficient
1. CCCCC [pentane] + CCCCCCCCCC[N+](C)(C)CCCCCCCCCC.F[B-](F)(F)F
2. C1CCCCCC1 [cycloheptane] + CCCCCCCCCC[N+](C)(C)CCCCCCCCCC.F[B-](F)(F)F
3. CCCCC [pentane] + CCCCCCCCCC[N+](C)(C)CCCCCCCCCC.[O-][Cl+3]([O-])([O-])[O-]

1: 1.08; 2: 1.98; 3: 1.28

###

Field: activity coefficient. Provide a value for each of the compounds that follow.
Test method notes: activity coefficient (dimensionless); of the first substance listed, at infinite dilution; xn = mol fraction of the nth substance listed
Test parameters: 323 K; 101.33 kPa; Liquid; Chromatography; x1 = 0
Answers are plain numbers.

Example compounds with recorded activity coefficient:
- Compound: "C=CCCCC [hex-1-ene] + CCCCCCCCCC[N+](C)(C)CCCCCCCCCC.[O-][Cl+3]([O-])([O-])[O-]"
  Quantity: "activity coefficient"
  Experimental result: 1.56
- Compound: "O=C1CCCCC1 [cyclohexanone] + CCCCCCCCCC[N+](C)(C)CCCCCCCCCC.F[B-](F)(F)F"
  Quantity: "activity coefficient"
  Experimental result: 9.47
- Compound: "C#CCCCCC [1-heptyne] + CCCCCCCCCC[N+](C)(C)CCCCCCCCCC.F[B-](F)(F)F"
  Quantity: "activity coefficient"
  Experimental result: 0.893
- Compound: "CCCCCC [hexane] + CCCCCCCCCC[N+](C)(C)CCCCCCCCCC.[O-][Cl+3]([O-])([O-])[O-]"
  Quantity: "activity coefficient"
  Experimental result: 2.48

// each listed compound needs a value for activity coefficient
1. CCCCC [pentane] + CCCCCCCCCC[N+](C)(C)CCCCCCCCCC.[O-][Cl+3]([O-])([O-])[O-]
2. CCCCCCC [heptane] + CCCCCCCCCC[N+](C)(C)CCCCCCCCCC.[O-][Cl+3]([O-])([O-])[O-]
3. CC(C)=O [acetone] + CCCCCCCCCC[N+](C)(C)CCCCCCCCCC.F[B-](F)(F)F
4. ClCCCl [1,2-dichloroethane] + CCCCCCCCCC[N+](C)(C)CCCCCCCCCC.[O-][Cl+3]([O-])([O-])[O-]
5. C#CCCCC [1-hexyne] + CCCCCCCCCC[N+](C)(C)CCCCCCCCCC.F[B-](F)(F)F

1: 1.59; 2: 2.96; 3: 0.991; 4: 0.464; 5: 0.838

###

Test method notes: activity coefficient (dimensionless); of the first substance listed, at infinite dilution; xn = mol fraction of the nth substance listed
Test parameters: 353 K; 101.33 kPa; Liquid; Chromatography; x1 = 0
Binary classification by activity coefficient, with 1 as an inclusive lower bound for true (1); all other cases are false (0).

Illustrative cases are given below, each with its answer.
- Compound: "c1ccccc1 [benzene] + CCCCCCCCCC[N+](C)(C)CCCCCCCCCC.[O-][Cl+3]([O-])([O-])[O-]"
  Group label: "false (0)"
- Compound: "C1CCCCC1 [cyclohexane] + CCCCCCCCCC[N+](C)(C)CCCCCCCCCC.F[B-](F)(F)F"
  Group label: "true (1)"

Could you tell me if the measured activity coefficient of CCO [ethanol] + CCCCCCCCCC[N+](C)(C)CCCCCCCCCC.[O-][Cl+3]([O-])([O-])[O-] reaches 1 or more?
false (0)

Also need C=CCCCC [hex-1-ene] + CCCCCCCCCC[N+](C)(C)CCCCCCCCCC.F[B-](F)(F)F , thanks.
true (1)

Also need C=CCCC [1-pentene] + CCCCCCCCCC[N+](C)(C)CCCCCCCCCC.[O-][Cl+3]([O-])([O-])[O-] , thanks.
true (1)

Also need CC(C)=O [acetone] + CCCCCCCCCC[N+](C)(C)CCCCCCCCCC.F[B-](F)(F)F , thanks.
false (0)

Also need CO [methanol] + CCCCCCCCCC[N+](C)(C)CCCCCCCCCC.F[B-](F)(F)F , thanks.
false (0)

Also need CCC(C)=O [butanone] + CCCCCCCCCC[N+](C)(C)CCCCCCCCCC.F[B-](F)(F)F , thanks.
false (0)

###

Field: activity coefficient. Provide a value for each of the compounds that follow.
Test method notes: activity coefficient (dimensionless); of the first substance listed, at infinite dilution; xn = mol fraction of the nth substance listed
Test parameters: 323 K; 101.33 kPa; Liquid; Chromatography; x1 = 0
Numbers only.

// each listed compound needs a value for activity coefficient
1. C#CCCCCC [1-heptyne] + CCCCCCCCCC[N+](C)(C)CCCCCCCCCC.[O-][Cl+3]([O-])([O-])[O-]
2. C#CCCCC [1-hexyne] + CCCCCCCCCC[N+](C)(C)CCCCCCCCCC.[O-][Cl+3]([O-])([O-])[O-]
3. CCCCC [pentane] + CCCCCCCCCC[N+](C)(C)CCCCCCCCCC.F[B-](F)(F)F
4. CCOCC [diethyl ether] + CCCCCCCCCC[N+](C)(C)CCCCCCCCCC.[O-][Cl+3]([O-])([O-])[O-]

1.1
0.83
1.51
1.03

###

Test method notes: activity coefficient (dimensionless); of the first substance listed, at infinite dilution; xn = mol fraction of the nth substance listed
Test parameters: 323 K; 101.33 kPa; Liquid; Chromatography; x1 = 0
The threshold is 2. Values of activity coefficient beneath it are tagged True; values meeting or exceeding it are tagged False.

Illustrative cases are given below, each with its answer.
- Compound: "C=CCCCCC [1-heptene] + CCCCCCCCCC[N+](C)(C)CCCCCCCCCC.F[B-](F)(F)F"
  Group label: "True"
- Compound: "CC(C)=O [acetone] + CCCCCCCCCC[N+](C)(C)CCCCCCCCCC.[O-][Cl+3]([O-])([O-])[O-]"
  Group label: "True"
- Compound: "CCCCCCCC [octane] + CCCCCCCCCC[N+](C)(C)CCCCCCCCCC.[O-][Cl+3]([O-])([O-])[O-]"
  Group label: "False"
- Compound: "CC#N [acetonitrile] + CCCCCCCCCC[N+](C)(C)CCCCCCCCCC.F[B-](F)(F)F"
  Group label: "True"
- Compound: "CCOCC [diethyl ether] + CCCCCCCCCC[N+](C)(C)CCCCCCCCCC.F[B-](F)(F)F"
  Group label: "True"
- Compound: "CCCCCCCC [octane] + CCCCCCCCCC[N+](C)(C)CCCCCCCCCC.F[B-](F)(F)F"
  Group label: "False"
- Compound: "C1CCCCCC1 [cycloheptane] + CCCCCCCCCC[N+](C)(C)CCCCCCCCCC.F[B-](F)(F)F"
  Group label: "True"

Pending compound:
Criterion: activity coefficient strictly below 2. Is it met by CCCCCCC [heptane] + CCCCCCCCCC[N+](C)(C)CCCCCCCCCC.F[B-](F)(F)F ?
False
